What MIC was measured for each of the following?
Numeric only. Scale: ng/mL

Write down measured MIC (E. faecium A24817) for this compound. COC1=C(C=O)C(C)C23OC24c2cc(O)c5c(c2NC3C#CC=CC#CC14)C(=O)c1c(O)ccc(O)c1C5=O (stereo not shown) [Dynemicin C]
0.8

Write down measured MIC (E. faecium A24817) for this compound. NCC[C@H](O)C(=O)N[C@@H]1C[C@H](N)[C@@H](O[C@H]2O[C@H](CN)[C@@H](O)[C@H](O)[C@H]2O)[C@H](O)[C@H]1O[C@H]1O[C@H](CO)[C@@H](O)[C@H](N)[C@H]1O [Amikacin, reference compound]
100000

Write down measured MIC (E. faecium A24817) for this compound. COC1=C(C=O)C(C)C23OC24c2cc(OC(C)=O)c5c(c2NC3C#CC=CC#CC14)C(=O)c1c(OC(C)=O)ccc(OC(C)=O)c1C5=O (stereo not shown) [Dynemicin C triacetate]
6.3

* * *

- Tested on: M. luteus PCI 1001
Attribute measured: MIC (ng/mL)
Numeric only. Scale: ng/mL

Write down measured MIC (M. luteus PCI 1001) for this molecule. COC1=C(C=O)C(C)C23OC24c2cc(O)c5c(c2NC3C#CC=CC#CC14)C(=O)c1c(O)ccc(O)c1C5=O (stereo not shown)
0.8

Write down measured MIC (M. luteus PCI 1001) for this molecule. COC1=C(C=O)C(C)C23OC24c2cc(OC(C)=O)c5c(c2NC3C#CC=CC#CC14)C(=O)c1c(OC(C)=O)ccc(OC(C)=O)c1C5=O (stereo not shown) [Dynemicin C triacetate]
3.1

Write down measured MIC (M. luteus PCI 1001) for this molecule. NCC[C@H](O)C(=O)N[C@@H]1C[C@H](N)[C@@H](O[C@H]2O[C@H](CN)[C@@H](O)[C@H](O)[C@H]2O)[C@H](O)[C@H]1O[C@H]1O[C@H](CO)[C@@H](O)[C@H](N)[C@H]1O [Amikacin, reference compound]
3100

The reported measurements were obtained from patent US5162330A.
